Data provenance is ChEMBL document CHEMBL1140955.

# assay details: Apparent permeability from apical to basolateral side of human Caco-2 cells at 330 uM in donor chamber after 3 hrs
# Assay type: ADME, cell-based
# conditions: read-out: permeability
reported metric: Papp A→B at 3 h, 330 µM (×10⁻⁶ cm/s)
A number alone suffices; assume ×10⁻⁶ cm/s.

Entry under test: `CC(C)[C@H](N)C(=O)O[C@@H]1Cc2ccccc2[C@@H]1NC(=O)[C@H](Cc1ccccc1)C[C@H](O)CN1CCN(Cc2cccnc2)C[C@H]1C(=O)NC(C)(C)C.O=C(O)C(F)(F)F` . Its Papp A→B at 3 h, 330 µM was 6.44

###

# assay details: Cytotoxicity against human MT4 cells after 4 days by MTT assay
# Assay type: cell-based
Kindly state CC50 at 96 h for each of the entries shown.
A number alone suffices; assume µM.

Entry under test: `CC(C)[C@H](N)C(=O)O[C@@H](C[C@@H](Cc1ccccc1)C(=O)N[C@H]1c2ccccc2C[C@H]1O)CN1CCN(Cc2cccnc2)C[C@H]1C(=O)NC(C)(C)C.O=C(O)C(F)(F)F` . Its CC50 at 96 h was 100

Entry under test: `CC(C)[C@H](N)C(=O)NCCCCCC(=O)O[C@@H](C[C@@H](Cc1ccccc1)C(=O)N[C@H]1c2ccccc2C[C@H]1OC(=O)CCCCCNC(=O)[C@@H](N)C(C)C)CN1CCN(Cc2cccnc2)C[C@H]1C(=O)NC(C)(C)C.O=C(O)C(F)(F)F.O=C(O)C(F)(F)F` . Its CC50 at 96 h was 45

Entry under test: `CC(C)[C@@H](N)C(=O)NCCCCCC(=O)O[C@H](CN1C[C@H]2CCCC[C@H]2C[C@H]1C(=O)NC(C)(C)C)[C@H](Cc1ccccc1)NC(=O)[C@H](CC(N)=O)NC(=O)c1ccc2ccccc2n1.O=C(O)C(F)(F)F.O=C(O)C(F)(F)F.O=C(O)C(F)(F)F` . Its CC50 at 96 h was 5.3
